All figures here come from ChEMBL document CHEMBL4257508.

Tested on: Klebsiella pneumoniae
Experimental details: Antibacterial activity against Klebsiella pneumoniae after 16 hrs by agar dilution method
Assay type: functional
Reported MIC values follow for various molecules

Known results for molecules:
Mol | Measurement
C[C@]12C[C@@]34C=C/C(=N\NC(N)=O)[C@@](C)(CCC(=O)Nc5c(O)ccc(C(=O)O)c5O)[C@@H]3[C@H](C[C@@H]1C4)O2 | > 64 mg/L
C[C@]12C[C@@]34C=C/C(=N\NC(N)=S)[C@@](C)(CCC(=O)Nc5c(O)ccc(C(=O)O)c5O)[C@@H]3[C@H](C[C@@H]1C4)O2 | > 64 mg/L

Kindly note the recorded MIC for C[C@@]1(CCC(=O)Nc2c(O)ccc(C(=O)O)c2O)[C@H](O)CC[C@]23C[C@H]4C[C@H](O[C@@]4(C)C2)[C@H]31 , which is > 64 mg/L
